assay: growth inhibitors of anaerobic choline-fed gram-negatives, minimal medium, absorbance (AID 1963822); settings: Gram-negative bacterium anaerobic choline minimal medium, hits give low values
Out of some 55,000 compounds screened, about 90 (0.2%) were called active. For the sample, actives were picked, then their nearest neighbours and some compounds at random.
Lab note: anything with z-score below -0.4 is marked MET; values at -0.4 or higher are marked NOT MET.

Use these answered entries as a reference point.
CCC(C)(C)NC(=O)CN(C)S(=O)(=O)c1cc2c(cc1Cl)NC(=O)CO2
NOT MET
O=C(NCCN1CCOCC1)C1CCN(c2cncnc2N2CCCCC2)CC1
NOT MET
O=C(Nc1ccc(Br)cc1F)N1CCN(c2cc(-c3ccccc3)ncn2)CC1
MET
CC(=O)N1CCCN(S(C)(=O)=O)CC1
NOT MET

# TODO verify z-score < -0.4 strictly for this molecule: O=S(=O)(Nc1ccc(F)cc1)c1cc(-c2noc(C3CC3)n2)cs1
NOT MET

# TODO verify z-score < -0.4 strictly for this molecule: CC(C)(C)c1ccc(S(=O)(=O)NCc2nc(N)n(S(=O)(=O)c3ccc(C(C)(C)C)cc3)n2)cc1
NOT MET

# TODO verify z-score < -0.4 strictly for this molecule: COc1ccc2nc(-n3nc(C)c4c3NC(=O)CC4c3ccsc3)sc2c1 (stereo not given)
MET

# TODO verify z-score < -0.4 strictly for this molecule: CCn1nc(C)c(CCN(C)C(=O)NCC2CCCO2)c1C (stereo not given)
MET

# TODO verify z-score < -0.4 strictly for this molecule: CC1CCN(CCCNC(=O)Cc2ccc(NC(=O)N3CCSc4ncccc43)cc2)CC1
NOT MET

# TODO verify z-score < -0.4 strictly for this molecule: COc1cc(OC)cc(C(=O)Nc2nc(CC(=O)Nc3ccc(OC)c(OC)c3)cs2)c1
MET

Recorded values, source PubChem BioAssay AID1963822.
